molecular target: protein kinase B (PKB); assay: cell-based or functional assay
Square brackets hold non-standard residues; d marks the D form. * marks the point of attachment. Cholesteryloxycarbonyl = CC(C)CCC[C@@H](C)[C@H]1CC[C@H]2[C@@H]3CC=C4C[C@@H](OC(=O)*)CC[C@]4(C)[C@H]3CC[C@]12C; hLeu = CC(C)CC[C@H](N)C(=O)O; Nva = CCC[C@H](N)C(=O)O; Dap = NC[C@H](N)C(=O)O
quantity name: IC50, in vitro kinase assay PKB (nM)
Answers are plain numbers, in nM.

For the binder shown here, Cholesteryloxycarbonyl-GGGGGGRPR[Nva]Y[Dap][hLeu]-NH2 (SMILES CCC[C@H](NC(=O)[C@H](CCCNC(=N)N)NC(=O)[C@@H]1CCCN1C(=O)[C@H](CCCNC(=N)N)NC(=O)CNC(=O)CNC(=O)CNC(=O)CNC(=O)CNC(=O)CNC(=O)O[C@H]1CC[C@@]2(C)C(=CC[C@H]3[C@@H]4CC[C@H]([C@H](C)CCCC(C)C)[C@@]4(C)CC[C@@H]32)C1)C(=O)N[C@@H](Cc1ccc(O)cc1)C(=O)N[C@@H](CN)C(=O)N[C@@H](CCC(C)C)C(N)=O) [PTR 6336] , give the reported IC50, in vitro kinase assay PKB.
1000
